Values were extracted from patent US12662465B2.

assay-target: EGFR (d746-750) (Homo sapiens, UniProt P00533, DEL746-750)
Construct: purchased SignalChem E10-122JG
Sequence (P00533 with tags, fused parts or gaps DEL746-750 limits assumed): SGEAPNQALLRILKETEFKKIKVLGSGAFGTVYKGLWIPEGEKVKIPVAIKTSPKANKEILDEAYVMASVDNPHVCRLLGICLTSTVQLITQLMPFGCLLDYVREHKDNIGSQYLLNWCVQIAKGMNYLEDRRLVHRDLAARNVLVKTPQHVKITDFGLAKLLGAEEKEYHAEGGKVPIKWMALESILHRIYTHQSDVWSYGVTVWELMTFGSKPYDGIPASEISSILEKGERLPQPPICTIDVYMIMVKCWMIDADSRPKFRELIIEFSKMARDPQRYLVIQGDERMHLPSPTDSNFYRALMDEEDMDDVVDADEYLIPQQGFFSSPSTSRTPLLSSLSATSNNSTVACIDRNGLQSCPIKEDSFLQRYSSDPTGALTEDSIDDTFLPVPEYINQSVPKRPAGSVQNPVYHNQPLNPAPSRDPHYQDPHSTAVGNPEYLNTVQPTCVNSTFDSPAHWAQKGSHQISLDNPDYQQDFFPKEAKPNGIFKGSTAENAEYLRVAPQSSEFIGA
protocol: Biochemical EGFR inhibition assay (Caliper mobility shift), EGFR (d746-750)
cond: read-out: Enz EGFR_Exon19-del746-750 IC50
pIC50: −log10 of the molar value.
result-type: pIC50

C[C@H](CN(C)C)Oc1cc(-c2cnn(C)c2)cc2ncnc(Nc3ccc4ncc(F)cc4c3F)c12 | > 8.00
CO[C@@H]1CCN(c2cc3ncnc(Nc4ccc5ncccc5c4F)c3c(O[C@H](C)CN(C)C)n2)C1 | > 8.00
CN(C)C1(COc2cc(-c3cnn(C)c3)cc3ncnc(Nc4ccc5ncccc5c4F)c23)COC1 | > 8.00
C[C@@H](Oc1cc(N2CC3CC(C2)O3)cc2ncnc(Nc3ccc4ncccc4c3F)c12)C1COC1 | > 8.00
CC(CN(C)C)Oc1cc(-c2cnn(C)c2)cc2ncnc(Nc3ccc4ncccc4c3)c12 (racemic) | > 8.00
C[C@H](CN(C)C)Oc1cc(N2CC3(CNC3)C2)cc2ncnc(Nc3ccc4ncccc4c3F)c12 | > 8.00
C[C@H](CN(C)C)Oc1cc(N(C)C)cc2ncnc(Nc3ccc4ncccc4c3F)c12 | > 8.00
C[C@@H](Oc1cc(N2CC[C@@H](C(C)(C)O)C2)cc2ncnc(Nc3ccc4ncccc4c3F)c12)C1COC1 | > 8.00
C[C@H](CN(C)C)Oc1cc(-c2cnn(C)c2)cc2ncnc(Nc3cc(O)c4ncccc4c3F)c12 | > 8.00
C[C@H](CN(C)C)Oc1cc(N2CC3CC(C2)N3)cc2ncnc(Nc3ccc4ncccc4c3F)c12 | < 7.30

## Task Need pIC50, item `C[C@@H](Oc1cc(-c2cnn(C)c2)cc2ncnc(Nc3c(F)cc4ncccc4c3F)c12)C1COC1`
## Result > 8.00

## Task Need pIC50, item `C[C@H](CN(C)C)Oc1cc(-c2cn[nH]c2)cc2ncnc(Nc3ccc4ncccc4c3F)c12`
## Result > 8.00

## Task Need pIC50, item `C[C@H](CN(C)C)Oc1cc(N2CC3(CCS3(=O)=O)C2)cc2ncnc(Nc3ccc4ncccc4c3F)c12`
## Result > 8.00

----------
assay-target: EGFR (d746-750) (Homo sapiens, UniProt P00533, DEL746-750)
Construct: purchased SignalChem E10-122JG
protocol: Biochemical EGFR inhibition assay (Caliper mobility shift), EGFR (d746-750)
cond: 1.0 mM ATP or ATP Km; room temperature (25° C.); read-out: Enz EGFR_Exon19-del746-750 IC50
The reader will find reported IC50 values listed item by item below.

## Task Need IC50, item C[C@@H](Oc1cc(-c2cnn([C@@H](C)CO)c2)cc2ncnc(Nc3ccc4ncccc4c3F)c12)C1COC1 (single isomer, unassigned)
## Result < 10 nM

## Task Need IC50, item C[C@H](Oc1cc(-c2cnn(C)c2)cc2ncnc(Nc3ccc4ncccc4c3F)c12)[C@@H]1CCCN1C (single isomer, unassigned) [Example 146]
## Result < 10 nM

## Task Need IC50, item CO[C@@H]1CCN(c2cc(O[C@H](C)CN(C)C)c3c(Nc4ccc5ncccc5c4F)ncnc3c2)C1 (single isomer, unassigned) [Example 87a]
## Result < 10 nM

----------
assay-target: EGFR L858R (Homo sapiens, UniProt P00533, L858R)
Construct: purchased SignalChem E10-122BG
Sequence (P00533 25-1210 L858R): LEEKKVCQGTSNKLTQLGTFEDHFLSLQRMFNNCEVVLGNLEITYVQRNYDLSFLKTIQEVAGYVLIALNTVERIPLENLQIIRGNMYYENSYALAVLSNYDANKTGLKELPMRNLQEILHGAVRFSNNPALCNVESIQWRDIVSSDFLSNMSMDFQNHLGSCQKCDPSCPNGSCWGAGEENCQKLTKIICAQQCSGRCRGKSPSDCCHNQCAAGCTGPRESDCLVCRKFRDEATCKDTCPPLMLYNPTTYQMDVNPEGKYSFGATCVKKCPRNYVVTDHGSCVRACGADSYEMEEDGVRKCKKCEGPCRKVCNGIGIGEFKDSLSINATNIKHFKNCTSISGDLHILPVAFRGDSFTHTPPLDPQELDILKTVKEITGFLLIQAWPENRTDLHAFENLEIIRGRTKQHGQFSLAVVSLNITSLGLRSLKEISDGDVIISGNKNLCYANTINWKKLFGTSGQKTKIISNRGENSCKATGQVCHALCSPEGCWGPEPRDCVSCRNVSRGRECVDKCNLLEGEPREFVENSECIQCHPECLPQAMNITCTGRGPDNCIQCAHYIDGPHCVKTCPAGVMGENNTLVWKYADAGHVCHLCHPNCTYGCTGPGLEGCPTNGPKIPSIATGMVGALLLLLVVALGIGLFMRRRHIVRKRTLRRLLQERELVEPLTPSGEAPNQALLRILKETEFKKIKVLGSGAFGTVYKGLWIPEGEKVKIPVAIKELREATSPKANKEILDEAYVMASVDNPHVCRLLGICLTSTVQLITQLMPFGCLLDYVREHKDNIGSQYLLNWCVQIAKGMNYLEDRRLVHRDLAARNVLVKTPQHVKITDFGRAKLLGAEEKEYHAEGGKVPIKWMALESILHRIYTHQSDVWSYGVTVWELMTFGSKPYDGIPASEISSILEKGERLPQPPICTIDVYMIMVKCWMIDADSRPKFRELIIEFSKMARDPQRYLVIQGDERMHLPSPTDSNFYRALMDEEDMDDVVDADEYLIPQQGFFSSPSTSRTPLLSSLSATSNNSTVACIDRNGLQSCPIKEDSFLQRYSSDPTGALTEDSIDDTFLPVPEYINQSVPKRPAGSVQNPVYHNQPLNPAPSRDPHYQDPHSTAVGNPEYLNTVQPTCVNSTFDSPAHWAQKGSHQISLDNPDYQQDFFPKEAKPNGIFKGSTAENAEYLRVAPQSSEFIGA
protocol: Biochemical EGFR inhibition assay (Caliper mobility shift), EGFR L858R
cond: read-out: Enz EGFR_L858R IC50
pIC50: −log10 of the molar value.
result-type: pIC50

Known results for compounds:
CN(C)CCOc1cc(-c2cnn(C)c2)cc2ncnc(Nc3ccc4ncccc4c3F)c12 [Example 34] | 7.30 to 8.00
[2H]c1ccc2c(F)c(Nc3ncnc4cc(-c5cnn(C)c5)cc(O[C@H](C)CN(C)C)c34)ccc2n1 [Example 155] | > 8.00
CN1CC[C@H](Oc2cc(-c3cnn(C)c3)cc3ncnc(Nc4ccc5ncccc5c4F)c23)C1=O [Example 25] | > 8.00
C[C@H](CN(C)C)Oc1cc(N2CCOCC2)cc2ncnc(Nc3ccc4ncccc4c3F)c12 [Example 65] | 7.30 to 8.00
C[C@H](CN(C)C)Oc1cc(-c2cnn(C)c2)cc2ncnc(Nc3c(F)cc4ncccc4c3F)c12 [Example 106] | > 8.00

## Task Need pIC50, item C[C@@H](Oc1cc(-c2cnn(CCO)c2)cc2ncnc(Nc3ccc4ncccc4c3F)c12)C1COC1 [Example 51]
## Result > 8.00

## Task Need pIC50, item C[C@H](CN(C)C)Oc1cc(N2CCOC3(CC3)C2)cc2ncnc(Nc3ccc4ncccc4c3F)c12 [Example 91]
## Result < 7.30

## Task Need pIC50, item C[C@H](CN(C)C)Oc1cc(-c2cnn(C)c2)cc2ncnc(Nc3ccc4nc(O)ccc4c3F)c12 [Example 130]
## Result < 7.30
